Origin of the recorded values: the RepoRT retention time repository

Test: HILIC, Waters ACQUITY UPLC BEH Amide, 100 × 2.1 mm, 1.7 µm; A: water + 0.125% formic acid + 10 mM ammonium formate; B: 5% water + 95% acetonitrile + 0.125% formic acid + 10 mM ammonium formate; gradient (min/%B) 0/100 2/100 7.7/70 9.5/40 10.25/30 12.75/100 17/100
Conditions: stereoisomer not certain
VALUE KIND: LC retention time
In your response, the unit should come after the numeric value.

Report LC retention time, nothing else, for this compound: CC(C)NCC(O)COc1ccc(COCCOC(C)C)cc1 (stereo not given) [Bisoprolol]
3.47 min

Report LC retention time, nothing else, for this compound: Cc1[nH]c(=O)c(C#N)cc1-c1ccncc1 [Milrinone]
1.6 min

Report LC retention time, nothing else, for this compound: Nc1ncnc2c1ncn2C1CC(O)C(CO)O1 (stereo not given) [2'-Deoxyadenosine]
3.92 min

Report LC retention time, nothing else, for this compound: O=C1CCCCC1=O [1,2-Cyclohexanedione]
5.77 min

Report LC retention time, nothing else, for this compound: Nc1ccn(C2OC(CO)C(O)C2O)c(=S)n1 (stereo not given) [2-Thiocytidine]
5.33 min

====

Assay: HILIC, Waters ACQUITY UPLC BEH Amide, 100 × 2.1 mm, 1.7 µm; A: water + 0.125% formic acid + 10 mM ammonium formate; B: 5% water + 95% acetonitrile + 0.125% formic acid + 10 mM ammonium formate; gradient (min/%B) 0/100 2/100 7.7/70 9.5/40 10.25/30 12.75/100 17/100
Settings: stereoisomer not certain
Please go through the items and note down their LC retention time.
Only the number, expressed in min, is required.

Report LC retention time, nothing else, for this compound: NC(=O)Cc1ccccc1 [2-Phenylacetamide]
1.26

Report LC retention time, nothing else, for this compound: COC(=O)CCc1ccc(OCC(O)CNC(C)C)cc1 (stereo not drawn)
3.13

Report LC retention time, nothing else, for this compound: OCCN1CC(O)C(O)C(O)C1CO (stereo not drawn)
8.12

Report LC retention time, nothing else, for this compound: OCC1OC(Oc2cc(O)cc(C=Cc3ccc(O)cc3)c2)C(O)C(O)C1O (stereo not drawn) [trans-Piceid]
4.64

Report LC retention time, nothing else, for this compound: `CN(C)CCC=C1c2ccccc2COc2ccc(CC(=O)O)cc21`
4.41

Report LC retention time, nothing else, for this compound: CC(O)(CS(=O)(=O)c1ccc(F)cc1)C(=O)Nc1ccc(C#N)c(C(F)(F)F)c1 (stereo not drawn) [Bicalutamide]
0.99

Report LC retention time, nothing else, for this compound: `O=C(O)Cc1c[nH]c2ccccc12`
1.33

Report LC retention time, nothing else, for this compound: CC(C)CC(NC(=O)C(COC(C)(C)C)NC(=O)C(Cc1ccc(O)cc1)NC(=O)C(CO)NC(=O)C(Cc1c[nH]c2ccccc12)NC(=O)C(Cc1cnc[nH]1)NC(=O)C1CCC(=O)N1)C(=O)NC(CCCN=C(N)N)C(=O)N1CCCC1C(=O)NNC(N)=O (stereo not drawn)
7.83

====

Assay: HILIC, Waters ACQUITY UPLC BEH Amide, 100 × 2.1 mm, 1.7 µm; A: water + 0.125% formic acid + 10 mM ammonium formate; B: 5% water + 95% acetonitrile + 0.125% formic acid + 10 mM ammonium formate; gradient (min/%B) 0/100 2/100 7.7/70 9.5/40 10.25/30 12.75/100 17/100
Settings: stereoisomer not certain
VALUE KIND: LC retention time
In your response, the unit should come after the numeric value.

Report LC retention time, nothing else, for this compound: CCCCCC(=O)OC(CC(=O)[O-])C[N+](C)(C)C [Hexanoyl-L-carnitine]
5.09 min

Report LC retention time, nothing else, for this compound: O=C(O)c1ccccc1C(=O)O [Phthalic acid]
1.15 min

Report LC retention time, nothing else, for this compound: CC(C)Oc1ccc2c(=O)c(-c3ccccc3)coc2c1 [Ipriflavone]
0.94 min

Report LC retention time, nothing else, for this compound: OCC(O)C(O)C(OC1OC(CO)C(O)C(O)C1O)C(O)CO (stereo not given) [Lactitol]
8.99 min

Report LC retention time, nothing else, for this compound: O=P(O)(O)Oc1ccccc1 [Phenylphosphoric acid]
7.05 min

Report LC retention time, nothing else, for this compound: COc1cccc(C(=O)O)c1N [2-Amino-3-methoxybenzoic acid]
1.27 min

Report LC retention time, nothing else, for this compound: CC(=O)CC(c1ccccc1)c1c(O)c2ccccc2oc1=O (stereo not given) [Warfarin]
0.99 min

Report LC retention time, nothing else, for this compound: CC(=O)NCCCCC(N)C(=O)O (stereo not given) [N-epsilon-Acetyllysine]
8.03 min

Report LC retention time, nothing else, for this compound: O=C(C=CC=Cc1ccc2c(c1)OCO2)N1CCCCC1 [Piperine]
1.1 min

Report LC retention time, nothing else, for this compound: NC(CCC(=O)O)C(=O)NC(Cc1ccccc1)C(=O)O (stereo not given) [Glu-Phe]
8.2 min

====

Please go through the items and note down their LC retention time.
Experiment: HILIC, Waters ACQUITY UPLC BEH Amide, 100 × 2.1 mm, 1.7 µm; A: water + 0.125% formic acid + 10 mM ammonium formate; B: 5% water + 95% acetonitrile + 0.125% formic acid + 10 mM ammonium formate; gradient (min/%B) 0/100 2/100 7.7/70 9.5/40 10.25/30 12.75/100 17/100
Settings: stereoisomer not certain
Only the number, expressed in min, is required.

Report LC retention time, nothing else, for this compound: NC(CC(=O)O)C(=O)O (stereo not given)
9.33

Report LC retention time, nothing else, for this compound: `CN1C(=O)CC(=O)N(c2ccccc2)c2cc(Cl)ccc21`
1.1

Report LC retention time, nothing else, for this compound: Nc1nc2c(ncn2C2CC(O)C(CO)O2)c(=O)[nH]1 (stereo not given)
6.4

Report LC retention time, nothing else, for this compound: CC(=O)NCCC(=O)NC(Cc1cnc[nH]1)C(=O)O (stereo not given)
8.35

Report LC retention time, nothing else, for this compound: C=COC(N)=O [Vinyl Carbamate]
1.34

Report LC retention time, nothing else, for this compound: O=C(O)CCC(O)C(=O)O (stereo not given) [2-Hydroxyglutaric acid]
0.91

Report LC retention time, nothing else, for this compound: `Oc1ccc(C=Cc2cc(O)cc(O)c2)cc1`
1.41

Report LC retention time, nothing else, for this compound: `O=C(c1ccccc1)c1c(O)cc(O)cc1O`
1.34

Report LC retention time, nothing else, for this compound: CC(C)C(O)C(=O)O (stereo not given) [2-Hydroxy-3-methylbutyric acid]
1.29

Report LC retention time, nothing else, for this compound: `COc1ccc2c(c1)c(CC(=O)O)c(C)n2C(=O)c1ccc(Cl)cc1`
1.08

====

Test: HILIC, Waters ACQUITY UPLC BEH Amide, 100 × 2.1 mm, 1.7 µm; A: water + 0.125% formic acid + 10 mM ammonium formate; B: 5% water + 95% acetonitrile + 0.125% formic acid + 10 mM ammonium formate; gradient (min/%B) 0/100 2/100 7.7/70 9.5/40 10.25/30 12.75/100 17/100
Details: stereoisomer not certain
VALUE KIND: LC retention time

Report LC retention time, nothing else, for this molecule: O=C1CC2(CCCC2)CC(=O)N1CCNCC1COc2ccccc2O1 (centres undefined)
1.8 min

Report LC retention time, nothing else, for this molecule: CCOc1cc(CC(=O)NC(CC(C)C)c2ccccc2N2CCCCC2)ccc1C(=O)O (centres undefined) [Repaglinide]
1.01 min

Report LC retention time, nothing else, for this molecule: `N#Cc1ccc(C(c2ccc(C#N)cc2)n2cncn2)cc1`
0.98 min

Report LC retention time, nothing else, for this molecule: `Cc1onc(-c2ccccc2)c1-c1ccc(S(N)(=O)=O)cc1`
1.01 min

Report LC retention time, nothing else, for this molecule: CCOC(=O)OC(C)OC1=C(C(=O)Nc2ccccn2)N(C)S(=O)(=O)c2ccccc21 (centres undefined)
0.95 min

Report LC retention time, nothing else, for this molecule: COCc1c(C(C)C)nc(C(C)C)c(C=CC(O)CC(O)CC(=O)O)c1-c1ccc(F)cc1 (centres undefined)
1.18 min

Report LC retention time, nothing else, for this molecule: `CC(=O)N[C@@H](CCC(N)=O)C(=O)O`
8.18 min

Report LC retention time, nothing else, for this molecule: O=c1ccn(C2OC(CO)CC2O)c(=O)[nH]1 (centres undefined)
2.87 min

Report LC retention time, nothing else, for this molecule: NC(Cc1ccc(O)c(Cl)c1)C(=O)O (centres undefined)
7.13 min

Report LC retention time, nothing else, for this molecule: CC(=O)NCCc1c[nH]c2ccc(O)cc12 [N-Acetyl-5-hydroxytryptamine]
1.43 min

Report LC retention time, nothing else, for this molecule: CC(NC(CCc1ccccc1)C(=O)O)C(=O)N1CCCC1C(=O)O (centres undefined)
7.07 min

Report LC retention time, nothing else, for this molecule: NC(=O)CS(=O)C(c1ccccc1)c1ccccc1 (centres undefined)
1.27 min

Report LC retention time, nothing else, for this molecule: Cc1cn(C2CC(O)C(COP(=O)(O)O)O2)c(=O)[nH]c1=O (centres undefined) [Thymidine 5'-monophosphate]
8.28 min

Report LC retention time, nothing else, for this molecule: CNC(C)C(=O)O (centres undefined)
7.67 min

Report LC retention time, nothing else, for this molecule: CC(C=CC1(O)C(C)=CC(=O)CC1(C)C)=CC(=O)O (centres undefined) [Abscisic acid]
1.33 min

Report LC retention time, nothing else, for this molecule: CNCC(O)c1ccc(O)cc1 (centres undefined) [Synephrine]
5.67 min

Report LC retention time, nothing else, for this molecule: `Cc1ncc(CO)c(C=O)c1O`
2.18 min

Report LC retention time, nothing else, for this molecule: Oc1cc(O)c2c(c1)OC(c1cc(O)c(O)c(O)c1)C(O)C2 (centres undefined) [Epigallocatechin]
10.2 min

Report LC retention time, nothing else, for this molecule: NCC1CCC(C(=O)Oc2ccc(CCC(=O)O)cc2)CC1 (centres undefined) [Cetraxate]
5.29 min
